Ref: ChEMBL document CHEMBL4311972

# measurement-target: CYP2C19 (Homo sapiens, UniProt P33261)
# Sequence (P33261 whole entry): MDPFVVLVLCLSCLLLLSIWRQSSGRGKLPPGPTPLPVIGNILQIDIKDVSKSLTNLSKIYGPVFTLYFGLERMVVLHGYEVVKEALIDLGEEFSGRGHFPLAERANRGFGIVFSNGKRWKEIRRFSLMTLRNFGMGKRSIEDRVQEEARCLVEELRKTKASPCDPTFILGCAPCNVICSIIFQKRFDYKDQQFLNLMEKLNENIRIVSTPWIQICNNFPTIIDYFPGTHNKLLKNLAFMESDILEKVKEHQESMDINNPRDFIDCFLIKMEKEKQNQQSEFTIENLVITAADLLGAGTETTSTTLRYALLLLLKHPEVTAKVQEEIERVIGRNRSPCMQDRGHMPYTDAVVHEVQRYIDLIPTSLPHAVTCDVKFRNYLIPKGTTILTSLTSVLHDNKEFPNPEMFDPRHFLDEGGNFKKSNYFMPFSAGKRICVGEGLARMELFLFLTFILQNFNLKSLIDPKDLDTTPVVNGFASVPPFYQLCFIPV
# protocol-notes: Inhibition of human microsomal CYP2C19 expressed in baculovirus infected insect cells at 10 uM using luciferin-H EGE as substrate preincubated with enzyme/substrate mixture for 30 mins followed by further incubation with NADPH for 30 mins by CYP450 luciferase Glo assay relative to control
# Assay type: ADME
# test-context: probe luciferin-H EGE
endpoint-name: inhibition at 0.5 h, 10 µM (%)

Field: example entries. Status: answers known.
CCCOc1c(-c2csc3ccccc23)oc2ccc(OC)cc2c1=O : 31.7
COc1ccc2oc(-c3cn(C)c4ccccc34)c(O)c(=O)c2c1 : -1.53
CCCCC(=O)Oc1c(-c2csc3ccccc23)oc2ccc(OC)cc2c1=O : 33.9
COc1ccc2c(=O)c(O)c(-c3ccc4c(c3)OCO4)oc2c1 : 80.3
COc1ccc2oc(-c3csc4ccccc34)c(O)c(=O)c2c1 : -6.32
COc1ccc2oc(-c3cccc(-c4ccc(OC)c(OC)c4)c3)c(O)c(=O)c2c1 : 22
COc1ccc2c(=O)c(O)c(-c3ccco3)oc2c1 : 68.7
O=c1c(O)c(-c2csc3ccccc23)oc2ccc(F)cc12 : 26
COc1ccc2c(=O)c(O)c(-c3cc(C)cs3)oc2c1 : 77.9
COc1ccc2oc(-c3ccco3)c(O)c(=O)c2c1 : 54.3

P. Cc1csc(-c2oc3ccc(O)cc3c(=O)c2O)c1
Q. O=c1c(O)c(-c2csc3ccccc23)oc2ccc(Cl)cc12
R. COc1ccc2oc(-c3cccc(-c4ccc5c(c4)OCO5)c3)c(O)c(=O)c2c1
S. O=c1c(O)c(-c2csc3ccccc23)oc2cc(Cl)ccc12
**Query** Put the compounds in ascending order of inhibition at 0.5 h, 10 µM. Quick reminder: the answer is the labels in the order asked.
**Result** S, Q, R, P
(S: -6.35%, Q: 12%, R: 24.5%, P: 35.2%)

A. Cc1csc(-c2oc3ccc(C)cc3c(=O)c2O)c1
B. O=c1c(O)c(-c2c[nH]c3ccccc23)oc2ccc(O)cc12
**Query** Which value of inhibition at 0.5 h, 10 µM is smaller, the one for A or the one for B ? Give the chosen item's label as your response.
**Result** A
(A: 26.2%, B: 47.9%)

a. O=c1c(O)c(-c2cccc(-c3ccc(O)c(O)c3)c2)oc2ccc(O)cc12
b. COc1ccc2oc(-c3ccc4ncccc4c3)c(O)c(=O)c2c1
**Query** Given the listed records, identify the one among a and b with higher inhibition at 0.5 h, 10 µM. Give the chosen item's label as your response.
**Result** a

1. O=c1c(O)c(-c2csc3ccccc23)oc2ccc(Br)cc12
2. O=c1c(O)c(-c2ccco2)oc2cc(O)ccc12
3. Cc1ccc2c(=O)c(O)c(-c3csc4ccccc34)oc2c1
**Query** Put the compounds in ascending order of inhibition at 0.5 h, 10 µM. Quick reminder: the answer is the labels in the order asked.
**Result** 1, 3, 2
